Numbers sourced from paper PMC10235067.

# Method description: Gemcitabine plasma pharmacokinetics in Slc28a1+/+ and Slc28a1-/- mice
# Stated conditions: female, mouse, plasma, iv, 50 mg/kg, MRTINF_obs, dFdU in plasma, KO mice, iv gemcitabine 50mg/kg, per mouse
Reported metric: MRT inf
Units required after the number.

Problem: Bench note: what MRT inf did O=c1ccn([C@@H]2O[C@H](CO)[C@@H](O)C2(F)F)c(=O)[nH]1 show?
Result: 10.1 min

* * *

# Method description: Gemcitabine plasma pharmacokinetics in Slc28a1+/+ and Slc28a1-/- mice
# Stated conditions: female, mouse, plasma, iv, 50 mg/kg, Vss, Slc28a1-/- mice; single i.v. dFdC 50 mg/kg
Structures can show the parent of a compound that is named as a salt.
Reported metric: Vd (L/kg)
Kindly provide the numeric value in L/kg only, without the unit symbol.

Problem: Bench note: what Vd did Nc1ccn([C@@H]2O[C@H](CO)[C@@H](O)C2(F)F)c(=O)n1 [dFdC, Gemcitabine hydrochloride, reference compound] show?
Result: 14.1

* * *

# Method description: Gemcitabine urine pharmacokinetics (renal excretion) in Slc28a1+/+ and Slc28a1-/- mice
# Stated conditions: mouse, urine, intravenous, 50 mg/kg, Cp (dFdU), Figure 5 G, H, I; KO mice, 240 Minutes, individual mice
Reported metric: concentration at 240 min (ng/mL)
Kindly provide the numeric value in ng/mL only, without the unit symbol.

Problem: Bench note: what concentration at 240 min did O=c1ccn([C@@H]2O[C@H](CO)[C@@H](O)C2(F)F)c(=O)[nH]1 [dFdU, 2′,2′-difluorodeoxyuridine] show?
Result: 371

* * *

# Method description: Gemcitabine urine pharmacokinetics (renal excretion) in Slc28a1+/+ and Slc28a1-/- mice
# Stated conditions: mouse, urine, intravenous, 50 mg/kg, Cp (dFdU), Figure 5 G, H, I; WT mice, 5 Minutes, individual mice
# Procedure: THU was added to the mouse urine samples upon collection and frozen until analysis. […] Five microliters of the diluted samples were transferred to a 96-well autosampler plate then 10 µL of internal standard mixture was added and mixed. […] The plate was then transferred to the 4 °C autosampler for analysis. The chromatographic separation was performed on a Thermo Accucore aQ 2.6 µm, 100 ×2.1 mm column at 30 °C using a gradient with a 10 µL injection volume. […]
Reported metric: concentration at 5 min
Units required after the number.

Problem: Bench note: what concentration at 5 min did O=c1ccn([C@@H]2O[C@H](CO)[C@@H](O)C2(F)F)c(=O)[nH]1 show?
Result: 328 ng/mL

* * *

# Method description: Gemcitabine plasma pharmacokinetics in Slc28a1+/+ and Slc28a1-/- mice
# Stated conditions: female, mouse, plasma, intravenous, 50 mg/kg, Cp (dFdU), KO mice, single iv gemcitabine 50mg/kg, 60 min
Reported metric: concentration at 60 min (ng/mL)
Kindly provide the numeric value in ng/mL only, without the unit symbol.

Problem: Bench note: what concentration at 60 min did O=c1ccn([C@@H]2O[C@H](CO)[C@@H](O)C2(F)F)c(=O)[nH]1 [dFdU, 2′,2′-difluorodeoxyuridine] show?
Result: 0

* * *

# Method description: Gemcitabine plasma pharmacokinetics in Slc28a1+/+ and Slc28a1-/- mice
# Stated conditions: female, mouse, plasma, intravenous, 50 mg/kg, Cp (dFdU), WT mice, single iv gemcitabine 50mg/kg, 120 min
Reported metric: concentration at 120 min (ng/mL)
Kindly provide the numeric value in ng/mL only, without the unit symbol.

Problem: Bench note: what concentration at 120 min did O=c1ccn([C@@H]2O[C@H](CO)[C@@H](O)C2(F)F)c(=O)[nH]1 show?
Result: 0

* * *

# Method description: Gemcitabine plasma pharmacokinetics in Slc28a1+/+ and Slc28a1-/- mice
# Stated conditions: female, mouse, plasma, iv, 50 mg/kg, Cl_obs, Gemcitabine in plasma, WT mice, iv gemcitabine 50mg/kg, per mouse
Counter-ions that a name gives are not always drawn.
Reported metric: clearance (mL/min/kg)
Kindly provide the numeric value in mL/min/kg only, without the unit symbol.

Problem: Bench note: what clearance did Nc1ccn([C@@H]2O[C@H](CO)[C@@H](O)C2(F)F)c(=O)n1 [dFdC, Gemcitabine hydrochloride, reference compound] show?
Result: 745

* * *

# Method description: Gemcitabine plasma pharmacokinetics in Slc28a1+/+ and Slc28a1-/- mice
# Stated conditions: female, mouse, plasma, iv, 50 mg/kg, Tmax, Slc28a1-/- mice; single i.v. dFdC 50 mg/kg
Reported metric: Tmax (h)
Kindly provide the numeric value in h only, without the unit symbol.

Problem: Bench note: what Tmax did O=c1ccn([C@@H]2O[C@H](CO)[C@@H](O)C2(F)F)c(=O)[nH]1 [dFdU, 2′,2′-difluorodeoxyuridine] show?
Result: 4

* * *

# Method description: Gemcitabine plasma pharmacokinetics in Slc28a1+/+ and Slc28a1-/- mice
# Stated conditions: female, mouse, plasma, iv, 50 mg/kg, AUCINF_obs, dFdU in plasma, KO mice, iv gemcitabine 50mg/kg, per mouse
Reported metric: AUC(0-inf)
Units required after the number.

Problem: Bench note: what AUC(0-inf) did O=c1ccn([C@@H]2O[C@H](CO)[C@@H](O)C2(F)F)c(=O)[nH]1 [dFdU, 2′,2′-difluorodeoxyuridine] show?
Result: 0.121 µg·h/mL

* * *

# Tested on: CNT1
# Stated conditions: Slc28a1-/- vs Slc28a1+/+; urine collected over 12 h starvation; 8-week-old mice; n = 6
Give measured fold increase of content in urine of Slc28a1-/- mice for each item. Keep answers brief.

Problem: Bench note: what fold increase of content in urine of Slc28a1-/- mice did O=c1cc[nH]c(=O)[nH]1 show?
Result: 4.6 fold

Problem: Would you mind doing O=c1ccn([C@H]2C[C@H](O)[C@@H](CO)O2)c(=O)[nH]1 as well?
Result: 2.4 fold

Problem: Would you mind doing O=c1ccn([C@@H]2O[C@H](CO)[C@@H](O)[C@H]2O)c(=O)[nH]1 as well?
Result: 5.9 fold

Problem: Would you mind doing Cc1cn([C@H]2C[C@H](O)[C@@H](CO)O2)c(=O)[nH]c1=O as well?
Result: 7.5 fold

Problem: Would you mind doing Nc1ccn([C@H]2C[C@H](O)[C@@H](CO)O2)c(=O)n1 as well?
Result: 44.8 fold

Problem: Would you mind doing Nc1ccn([C@@H]2O[C@H](CO)[C@@H](O)[C@H]2O)c(=O)n1 as well?
Result: 52.9 fold

* * *

# Method description: Gemcitabine plasma pharmacokinetics in Slc28a1+/+ and Slc28a1-/- mice
# Stated conditions: female, mouse, plasma, iv, 50 mg/kg, CL (systemic clearance), Slc28a1+/+ mice; single i.v. dFdC 50 mg/kg
Counter-ions that a name gives are not always drawn.
Reported metric: clearance (mL/min/kg)
Kindly provide the numeric value in mL/min/kg only, without the unit symbol.

Problem: Bench note: what clearance did Nc1ccn([C@@H]2O[C@H](CO)[C@@H](O)C2(F)F)c(=O)n1 [dFdC, Gemcitabine hydrochloride, reference compound] show?
Result: 607

* * *

# Method description: Gemcitabine plasma pharmacokinetics in Slc28a1+/+ and Slc28a1-/- mice
# Stated conditions: female, mouse, plasma, iv, 50 mg/kg, AUCINF_obs, Gemcitabine in plasma, WT mice, iv gemcitabine 50mg/kg, per mouse
Structures can show the parent of a compound that is named as a salt.
Reported metric: AUC(0-inf) (ng·h/mL)
Kindly provide the numeric value in ng·h/mL only, without the unit symbol.

Problem: Bench note: what AUC(0-inf) did Nc1ccn([C@@H]2O[C@H](CO)[C@@H](O)C2(F)F)c(=O)n1 [dFdC, Gemcitabine hydrochloride, reference compound] show?
Result: 1120

* * *

# Method description: Gemcitabine plasma pharmacokinetics in Slc28a1+/+ and Slc28a1-/- mice
# Stated conditions: female, mouse, plasma, iv, 50 mg/kg, Lambda_z, dFdU in plasma, KO mice, iv gemcitabine 50mg/kg, per mouse
Reported metric: k el (s⁻¹)
Kindly provide the numeric value in s⁻¹ only, without the unit symbol.

Problem: Bench note: what k el did O=c1ccn([C@@H]2O[C@H](CO)[C@@H](O)C2(F)F)c(=O)[nH]1 [dFdU, 2′,2′-difluorodeoxyuridine] show?
Result: 0.00206

* * *

# Method description: Gemcitabine plasma pharmacokinetics in Slc28a1+/+ and Slc28a1-/- mice
# Stated conditions: female, mouse, plasma, iv, 50 mg/kg, T1/2 (terminal half-life), Slc28a1-/- mice; single i.v. dFdC 50 mg/kg
Counter-ions that a name gives are not always drawn.
Reported metric: half-life (min)
Kindly provide the numeric value in min only, without the unit symbol.

Problem: Bench note: what half-life did Nc1ccn([C@@H]2O[C@H](CO)[C@@H](O)C2(F)F)c(=O)n1 [dFdC, Gemcitabine hydrochloride, reference compound] show?
Result: 11.5

* * *

# Method description: Gemcitabine urine pharmacokinetics (renal excretion) in Slc28a1+/+ and Slc28a1-/- mice
# Stated conditions: mouse, urine, intravenous, 50 mg/kg, Cp (dFdU), Figure 5 G, H, I; WT mice, 240 Minutes, individual mice
Reported metric: concentration at 240 min (ng/mL)
Kindly provide the numeric value in ng/mL only, without the unit symbol.

Problem: Bench note: what concentration at 240 min did O=c1ccn([C@@H]2O[C@H](CO)[C@@H](O)C2(F)F)c(=O)[nH]1 show?
Result: 429
